B1: glmS ribozyme (parent)
chain: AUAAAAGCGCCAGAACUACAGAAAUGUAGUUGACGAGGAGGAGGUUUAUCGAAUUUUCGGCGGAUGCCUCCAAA

Variants of: B1
Test: self-cleavage kobs at 10000 uM GlcN6P; higher = faster cleavage; RNA array
Run parameters: with glucosamine-6-phosphate
This sample holds only a part of the variants without activity.
Can you tell me self-cleavage kobs at 10000 uM GlcN6P for the items I'm about to list?
Answers are plain numbers, in s⁻¹.

{"Mutation string": "G29A U31A", "Measured": 0.00165}
{"Mutation string": "A15G U47A", "Measured": 0.03}
{"Mutation string": "A14U G32C", "Measured": 0.000294}
{"Mutation string": "A53G U54G", "Measured": 0.081}

Provide each entry's self-cleavage kobs at 10000 uM GlcN6P from the list below.
1. A52G C70U
2. G40U C58A
3. C50G C58A C67A
4. C11U U54A

Output:
0.00194
3.81e-05
9.18e-05
0.00149

Provide each entry's self-cleavage kobs at 10000 uM GlcN6P from the list below.
1. C67G
2. A39U A52G
3. G29C G41U

Output:
0.00145
0.00078
4.6e-05

Provide each entry's self-cleavage kobs at 10000 uM GlcN6P from the list below.
1. G7A A53G
2. U31C U69C
3. U47C U65G
4. G44C A53G
5. A15G U49G

Output:
3.18e-05
0.0013
0.00312
0.000177
0.00148
